# assay_overview: Apparent systemic clearance in dog at 1.1 mg/kg, iv relative to liver blood flow
# Format: ADME, organism-based, Canis lupus familiaris
# Set-up: dose 1.1 mg/kg, route intravenous
# applied_conditions: in vivo

molecule	clearance [L/h/kg]
C=CC1C[C@]1(NC(=O)[C@@H]1C[C@@H](Oc2cc(-c3csc(NC(C)C)n3)nc3cc(OC)ccc23)CN1C(=O)[C@@H](NC(=O)OC1CCCC1)C(C)(C)C)P(=O)(OCOC(=O)OCC)OCOC(=O)OCC (stereo partly specified)	1.7

---

# assay_overview: Oral bioavailability in dog at 2.7 mg/kg
# Type: ADME, organism-based, Canis lupus familiaris
# applied_conditions: in vivo
endpoint: bioavailability (%)

compound	endpoint	unit_string	result_value
C=CC1C[C@]1(NC(=O)[C@@H]1C[C@@H](Oc2cc(-c3csc(NC(C)C)n3)nc3cc(OC)ccc23)CN1C(=O)[C@@H](NC(=O)OC1CCCC1)C(C)(C)C)P(=O)(O)O (stereo partly specified)	bioavailability	%	1

---

Recorded CC50, one value per entry.
# assay_overview: Cytotoxicity against human HuH7 cells
# Assay type: cell-based, Huh-7
endpoint: CC50

molecule	result_value
C=CC1C[C@]1(NC(=O)[C@@H]1C[C@@H](Oc2cc(-c3csc(NC(C)C)n3)nc3cc(OC)ccc23)CN1C(=O)[C@@H](NC(=O)OC1CCCC1)C(C)(C)C)P(=O)(O)O (stereo partly drawn)	> 50 µM
C=CC1C[C@]1(NC(=O)[C@@H]1C[C@@H](Oc2cc(-c3csc(NC(C)C)n3)nc3cc(OC)ccc23)CN1C(=O)[C@@H](NC(=O)OC1CCCC1)C(C)(C)C)C(=O)O (stereo partly drawn)	> 50 µM
C=CC1C[C@]1(NC(=O)[C@@H]1C[C@@H](Oc2cc(-c3csc(NC(C)C)n3)nc3cc(OC)ccc23)CN1C(=O)[C@@H](NC(=O)OC1CCCC1)C(C)(C)C)P(=O)(O)OCC (stereo partly drawn)	> 50 µM
